The entries below are paired with their reported Kd.
target: PSMA (prostate specific membrane antigen) (Homo sapiens, UniProt Q04609 Q04609:44-750); experiment: filter; 37 C; conditions: tags: R&D Systems 4234-ZN-010; chain copies: 2
Sequence (Q04609 44-750, one chain of several): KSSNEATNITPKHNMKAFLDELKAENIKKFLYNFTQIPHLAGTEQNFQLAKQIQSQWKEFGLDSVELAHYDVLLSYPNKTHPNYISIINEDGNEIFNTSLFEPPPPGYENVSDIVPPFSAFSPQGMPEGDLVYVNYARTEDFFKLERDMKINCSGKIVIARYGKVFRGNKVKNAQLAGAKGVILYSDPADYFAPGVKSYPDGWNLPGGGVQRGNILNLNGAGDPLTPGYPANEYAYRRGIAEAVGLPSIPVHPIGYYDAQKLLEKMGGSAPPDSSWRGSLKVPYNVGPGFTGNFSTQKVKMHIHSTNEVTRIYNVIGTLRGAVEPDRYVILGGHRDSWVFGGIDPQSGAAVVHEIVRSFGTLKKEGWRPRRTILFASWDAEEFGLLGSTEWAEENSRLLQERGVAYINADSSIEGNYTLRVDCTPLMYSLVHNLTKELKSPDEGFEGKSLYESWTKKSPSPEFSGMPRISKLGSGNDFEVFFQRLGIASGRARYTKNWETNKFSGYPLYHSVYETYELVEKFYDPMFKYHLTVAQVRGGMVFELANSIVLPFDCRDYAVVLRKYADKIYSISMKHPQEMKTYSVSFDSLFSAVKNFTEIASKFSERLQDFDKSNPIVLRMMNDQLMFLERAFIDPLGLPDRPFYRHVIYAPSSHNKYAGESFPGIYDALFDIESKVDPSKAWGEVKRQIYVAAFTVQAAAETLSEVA
measure-name: Kd (nM)

A9 (ssRNA, 2'-F pyrimidines) RNA: GGGAGGACGAUGCGGACCGAAAAAGACCUGACUUCUAUACUAAGUCUACGUUCCCAGACGACUCGCCCGA :: 110
GGGACCGAAAAAGACCUGACUUCUAUACUAAGUCUACGUUCCC (ssRNA, 2'-F pyrimidines) [A9g] :: 130
